Origin of values: patent US9834542B2

Biological target: LXRβ (Homo sapiens, UniProt P55055)
Construct: Co-transfection expression plasmids, comprising full-length LXRα (pCMX-h LXRα[…] or LXRβ (pCMX-hLXRβ)); expressed in transfected cells; host or cells: CV-1 African Green Monkey Kidney Cells
Sequence (P55055 whole entry): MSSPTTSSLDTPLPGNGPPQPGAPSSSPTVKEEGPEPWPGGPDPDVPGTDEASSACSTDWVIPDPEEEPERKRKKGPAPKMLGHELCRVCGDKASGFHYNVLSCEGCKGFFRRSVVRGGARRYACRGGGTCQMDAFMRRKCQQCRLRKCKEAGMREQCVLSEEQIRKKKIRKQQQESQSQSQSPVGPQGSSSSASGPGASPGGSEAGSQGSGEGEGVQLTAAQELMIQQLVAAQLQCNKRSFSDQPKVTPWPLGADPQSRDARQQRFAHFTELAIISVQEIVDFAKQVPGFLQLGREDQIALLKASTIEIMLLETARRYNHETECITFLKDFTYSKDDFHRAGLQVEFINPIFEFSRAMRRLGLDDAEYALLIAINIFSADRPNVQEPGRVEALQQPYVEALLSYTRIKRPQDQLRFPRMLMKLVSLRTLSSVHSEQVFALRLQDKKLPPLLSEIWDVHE
Sequence (P19793 whole entry partner): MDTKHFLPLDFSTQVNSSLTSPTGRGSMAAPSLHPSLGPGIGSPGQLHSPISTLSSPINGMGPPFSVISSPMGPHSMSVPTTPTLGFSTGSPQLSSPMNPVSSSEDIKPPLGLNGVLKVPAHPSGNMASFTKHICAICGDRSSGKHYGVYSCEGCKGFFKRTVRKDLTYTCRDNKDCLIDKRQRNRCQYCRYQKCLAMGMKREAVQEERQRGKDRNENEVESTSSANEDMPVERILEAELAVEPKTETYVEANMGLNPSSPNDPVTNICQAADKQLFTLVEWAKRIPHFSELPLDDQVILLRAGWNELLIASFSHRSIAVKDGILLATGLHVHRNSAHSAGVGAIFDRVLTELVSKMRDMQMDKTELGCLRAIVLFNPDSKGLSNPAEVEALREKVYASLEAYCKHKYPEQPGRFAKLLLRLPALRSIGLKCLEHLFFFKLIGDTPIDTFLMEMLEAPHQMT
Assay: Co-transfection assay (LXRE luciferase reporter), LXRβ
Format: cell-based
Conditions: LXRβ co-transfection; relative to high control 1-(2,4-difluorobenzyl)-2-oxo-6-(4-phenoxyphenyl)-4-(trifluoromethyl)-1,2-dihydropyridine-3-carbonitrile; read-out: % Efficacy
MEASURED PARAMETER: Emax (%)

- Cc1nc(C(F)(F)F)cn1-c1ccc(-c2cc(F)c(CO)c(S(C)(=O)=O)c2)cc1-c1nc(C(C)(C)CO)oc1-c1ccc(OC(F)(F)F)cc1: 20
- Cc1nc(-c2cc(-c3cc(F)c(CO)c(S(C)(=O)=O)c3)ccc2-n2cc(C(F)(F)F)nc2C)c(-c2ccc(Cl)c(F)c2)o1: 74
- Cc1nc(C(F)(F)F)cn1-c1ccc(-c2cc(F)c(CO)c(S(C)(=O)=O)c2)cc1-c1nc(CCO)oc1-c1ccc2c(c1)OC(F)(F)O2: 71
- Cc1nc(C(=O)C(C)C)cn1-c1ccc(-c2cc(F)c(CO)c(S(C)(=O)=O)c2)cc1-n1nncc1-c1ccc(OC(F)(F)F)cc1: 85
- CCS(=O)(=O)c1cccc(-c2ccc(-n3cc(C(F)F)nc3C)c(-n3nncc3-c3ccc(OC(F)(F)F)cc3)c2)c1: 104
- COc1ncc(F)cc1-c1oc(C)nc1-c1cc(-c2cccc(S(C)(=O)=O)c2)ccc1-n1cc(C(F)(F)F)nc1C: 55

I. Cc1nc(-c2ccc(OC(F)F)cc2)c(-c2cc(-c3ccc(CO)c(S(C)(=O)=O)c3)ccc2-n2cc(C(F)(F)F)nc2C)o1
II. Cc1nc(-c2cc(-c3cccc(S(C)(=O)=O)c3)ccc2-n2cc(C(F)(F)F)nc2C)c(-c2ccc(F)c(Cl)c2)o1
III. Cc1nc(-c2cc(-c3cccc(S(C)(=O)=O)c3)ccc2-n2cc(C(F)(F)F)nc2C)c(-c2cccc(OC(F)(F)F)c2)o1
**Q:** Put these in order: smallest Emax first, largest last. # respond with the labels, arranged in the requested order
**A:** III, II, I
(III: 50%, II: 76%, I: 117%)

P. Cc1nc(C(F)(F)F)cn1-c1c(F)cc(-c2cccc(S(C)(=O)=O)c2)cc1-n1nncc1-c1ccc(Cl)cc1
Q. Cc1nc(-c2cc(-c3cccc(S(C)(=O)=O)c3)ccc2-n2cc(C(F)(F)F)nc2C)c(-c2cccnc2C)o1
R. Cc1nc(-c2cc(-c3cccc(S(C)(=O)=O)c3)ccc2-n2cc(C(F)(F)F)nc2C)c(-c2cccnc2OC(F)F)o1
**Q:** Falling order of Emax, please. # respond with the labels, arranged in the requested order
**A:** P, Q, R

I. C=Cc1nc(-c2cc(-c3cccc(S(C)(=O)=O)c3)ccc2-n2cc(C(F)(F)F)nc2C)c(-c2ccc3c(c2)OC(F)(F)O3)o1
II. Cc1nc(C(F)(F)F)cn1-c1ccc(-c2cccc(S(C)(=O)=O)c2)cc1-n1nncc1C1(c2ccc(Cl)cc2)CC1
**Q:** // which entry reports the smaller Emax, I or II ? In your reply, give the label of the chosen option.
**A:** II
(II: 53%, I: 89%)
